- procedureSummary: Volume of distribution at steady state in CD-1 mouse at 3 mg/kg, iv and 10 mg/kg, po
- Format: ADME, organism-based
- studyConditions: in vivo, read-out: Vdss
testReadout: Vd (L/kg)
Your answer is read as L/kg, so omit the unit and give the number.

Cc1ccc(-c2ncc(C)n2C)cc1NC(=O)c1ccc(OCc2ccccn2)cc1 :: 12

// below: Vd requested for another compound
Q. Field request: Vd | item: "Cc1ccc(-c2ncc[nH]2)cc1NC(=O)c1ccc(OCc2ccccn2)cc1"
A. 0.5

----------
- procedureSummary: Oral bioavailability in CD-1 mouse at 10 mg/kg
- Type: ADME, organism-based
- studyConditions: in vivo
Items are presented alongside their recorded bioavailability.
Your answer is read as %, so omit the unit and give the number.

Cc1ccc(-c2ncc[nH]2)cc1NC(=O)c1ccc(OCc2ccccn2)cc1 :: 83

// below: bioavailability requested for another compound
Q. Field request: bioavailability | item: "Cc1ccc(-c2ncc(C)n2C)cc1NC(=O)c1ccc(OCc2ccccn2)cc1"
A. 22
